Ref: patent US11274082B2

Test system: TEAD
assayDetails: TEAD reporter assay (Hippo Pathway TEAD Reporter - MCF7 cell line, luciferase)
Assay type: cell-based
testSettings: Homo sapiens; TEAD Reporter - MCF7 cells; read-out: TEAD Reporter Assay EC50
pEC50: −log10 of the molar value.
measureName: pEC50

1) CCNS(=O)(=O)c1ccc(NCc2ccccc2)c(-c2cn(C)cn2)c1 [I-41] : 6.30 to 7.00
2) Cn1cnc(-c2cc(S(C)(=O)=O)ccc2Nc2cc(C(F)(F)F)ccn2)c1 [I-48] : < 6.30
3) CCNS(=O)(=O)c1ccc(Nc2cc(C(F)(F)F)ccn2)c(-c2cn(C)cn2)c1 [I-37] : > 7.00
4) CNS(=O)(=O)c1ccc(N[C@H](C)c2ccccc2)c(-c2cn(C)cn2)c1 [I-30] : > 7.00
5) CNS(=O)(=O)c1ccc(N[C@H]2CCCc3ccccc32)c(-c2cn(C)cn2)c1 [I-52] : < 6.30
6) CNS(=O)(=O)c1ccc(NCc2ccc(C(F)(F)F)cn2)c(-c2cn(C)cn2)c1 [I-70] : 6.30 to 7.00
7) CCNS(=O)(=O)c1ccc(Nc2ccc(C(F)(F)F)cn2)c(-c2cn(C)cn2)c1 [I-65] : > 7.00
8) CNS(=O)(=O)c1ccc(NCc2cccc(C(F)(F)F)c2)c(-c2cn(C)cn2)c1 [I-31] : > 7.00
9) CNS(=O)(=O)c1ccc(N[C@H](CO)c2ccccc2)c(-c2cn(C)cn2)c1 [I-40] : < 6.30
